B1: 5KPH (parent)
chain: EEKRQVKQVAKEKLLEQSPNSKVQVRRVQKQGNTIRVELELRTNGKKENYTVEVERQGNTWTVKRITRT

variants of: B1; assay: folding stability dG (cDNA display proteolysis); higher = more stable; conditions: PBS, room temperature
Would you mind telling me the reported folding stability dG of each entry?
Give bare numbers, in kcal/mol.

Worked cases, answers included:
variant_designation: V63R
measured_metric: folding stability dG
measured_value: 0.762

variant_designation: E12F
measured_metric: folding stability dG
measured_value: 2.78

variant_designation: N44D
measured_metric: folding stability dG
measured_value: 3.79

variant_designation: V6C
measured_metric: folding stability dG
measured_value: 3.31

variant_designation: A10V
measured_metric: folding stability dG
measured_value: 3.78

variant_designation: K22C
measured_metric: folding stability dG
measured_value: 3.65

variant_designation: T60D
measured_metric: folding stability dG
measured_value: 3.77

variant_designation: N33A
measured_metric: folding stability dG
measured_value: 3.79

Please state, for each entry, its recorded folding stability dG.
1. K11R
2. L15T

-- reply
[3.94, 2.92]
